Molecular target: human ether-à-go-go-related gene (hERG) potassium channel (human, UniProt Q12809);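 also: peak tail current of the secondary pulse compared with the same well before compound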
Sequence (Q12809 whole entry, looked up): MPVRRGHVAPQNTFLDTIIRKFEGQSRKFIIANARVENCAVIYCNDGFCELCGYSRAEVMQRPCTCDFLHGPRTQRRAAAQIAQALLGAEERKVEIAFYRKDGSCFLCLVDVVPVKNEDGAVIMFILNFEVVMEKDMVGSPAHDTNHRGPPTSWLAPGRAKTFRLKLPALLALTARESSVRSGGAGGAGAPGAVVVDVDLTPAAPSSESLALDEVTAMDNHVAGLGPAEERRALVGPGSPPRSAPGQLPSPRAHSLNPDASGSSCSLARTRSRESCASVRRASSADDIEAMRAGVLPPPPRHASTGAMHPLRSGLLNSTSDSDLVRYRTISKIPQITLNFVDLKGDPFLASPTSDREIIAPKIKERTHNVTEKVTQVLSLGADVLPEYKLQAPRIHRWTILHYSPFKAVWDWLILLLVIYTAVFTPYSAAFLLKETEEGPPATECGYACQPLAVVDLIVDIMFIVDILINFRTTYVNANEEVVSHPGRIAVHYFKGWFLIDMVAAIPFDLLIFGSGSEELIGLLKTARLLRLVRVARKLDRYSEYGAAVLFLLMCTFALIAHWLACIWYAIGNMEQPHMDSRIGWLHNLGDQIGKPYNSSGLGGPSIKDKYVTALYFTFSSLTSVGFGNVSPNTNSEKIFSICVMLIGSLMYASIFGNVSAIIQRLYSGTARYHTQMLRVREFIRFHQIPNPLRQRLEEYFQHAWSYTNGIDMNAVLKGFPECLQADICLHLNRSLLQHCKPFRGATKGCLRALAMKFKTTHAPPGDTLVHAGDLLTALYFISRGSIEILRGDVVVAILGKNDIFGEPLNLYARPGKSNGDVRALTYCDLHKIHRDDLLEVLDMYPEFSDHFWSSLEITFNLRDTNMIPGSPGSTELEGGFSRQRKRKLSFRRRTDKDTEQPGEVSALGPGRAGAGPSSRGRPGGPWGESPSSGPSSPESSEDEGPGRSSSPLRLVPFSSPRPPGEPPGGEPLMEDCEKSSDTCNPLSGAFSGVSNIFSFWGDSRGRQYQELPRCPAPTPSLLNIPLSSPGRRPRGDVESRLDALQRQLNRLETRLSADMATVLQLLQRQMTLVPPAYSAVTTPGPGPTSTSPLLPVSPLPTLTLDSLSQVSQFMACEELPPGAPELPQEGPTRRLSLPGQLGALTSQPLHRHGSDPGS
Experiment: primary screen, population patch clamp on CHO cells stably expressing hERG; higher = less effect of the substance
Hit rate of the full screen: of about 310,000 compounds, about 14,000 (4.5%) showed an effect of 50% or more. Effects have a minus sign here. What follows is part of a selection rich in strong results, with near analogues and random picks from the rest.
Task for the reader: assign each of the following compounds its reported hERG current change (%, negative = inhibition) at 10uM.
Answers are plain numbers, in %.

For every record below, what is its hERG current change (%, negative = inhibition) at 10uM?
1. O=C(O)c1cc(S(=O)(=O)N2CCCCC2)sc1Cl
2. O=S1(=O)c2cccc3cccc(c23)N1Cc1nnc(-c2ccccc2Br)o1
3. Cc1ccc2nc(N(CCCN(C)C)C(=O)c3ccc4ncsc4c3)sc2c1
4. O=C(Cn1cnc2scc(-c3cccc([N+](=O)[O-])c3)c2c1=O)NCc1ccco1
5. CCC(C)(C)NC(=O)CN(Cc1ccc(OC)cc1)C(=O)CCC(=O)Nc1nccs1

17
-9.83
-61.4
-54
-4.32

For every record below, what is its hERG current change (%, negative = inhibition) at 10uM?
1. CSc1c(CC(=O)Nc2ccccc2Cl)n(Cc2ccccc2)c2ccccc12
2. CCCS(=O)(=O)N1CCCC(C(=O)NCCN2CCC(Cc3ccccc3)CC2)C1 (stereo not shown)
3. O=C(NCC1CCCCC1)c1cccc(Br)c1
4. O=C(CN1CCN(S(=O)(=O)c2ccc(Cl)s2)CC1)N1CCOCC1
5. Cc1ccc(S(=O)(=O)N2CCN(CC(=O)N3CCOCC3)CC2)cc1

[8.86, -58.2, -3.31, 14.4, 16.8]

----------
Biological target: human ether-à-go-go-related gene (hERG) potassium channel (human, UniProt Q12809);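 also: peak tail current of the secondary pulse compared with the same well before compound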
Test: primary screen, population patch clamp on CHO cells stably expressing hERG; higher = less effect of the substance
Screen size: about 310,000 compounds; about 14,000 (4.5%) showed an effect of 50% or more. The effect is printed as a negative number. The full list was thinned out, with strong results kept by preference.
Task for the reader: assign each of the following compounds its reported hERG current change (%, negative = inhibition) at 10uM.
Numbers only, in %.

Reference set (10 entries):
In [3]: df
Out[3]:
                                   compound  measure_unit  readout_number
0    COc1cc(OC)cc(-n2nnnc2SCC(=O)N2CCCC2)c1             %           -30.2
1  COc1ccc(Cn2c(C)nc([N+](=O)[O-])c2SCC(=O)O)cc1[N+](=O)[O-]             %            16.5
2  Cc1nc([N+](=O)[O-])c(SCC(O)CCl)n1Cc1ccc(Cl)cc1 (stereo not drawn)             %           -59.9
3  CC(C)(C)C(=O)N1CCN(c2ccc([N+](=O)[O-])c(NCC3CCCO3)c2)CC1 (stereo not drawn)             %           -20.8
4  CC(=O)N1CCCC(N2CCN(c3cccc(C(F)(F)F)c3)CC2)C1 (stereo not drawn)             %           -3.73
5      CCOc1ccc(Cn2ccnc2CCl)cc1[N+](=O)[O-]             %           -33.2
6  NC(=O)c1ccc(NCC2CCCO2)c([N+](=O)[O-])c1 (stereo not drawn)             %            12.7
7  O=C(c1ccccc1)N1CCN(c2ccc([N+](=O)[O-])c(NCC3CCCO3)c2)CC1 (stereo not drawn)             %           -76.9
8  CC(=NCC1CCCO1)c1c(O)n(C2CCCCC2)c(=O)[nH]c1=O (stereo not drawn)             %           -9.77
9  CCCOc1ccc(Cn2c(C)nc([N+](=O)[O-])c2SCC(O)COC)cc1[N+](=O)[O-] (stereo not drawn)             %             -66

For every record below, what is its hERG current change (%, negative = inhibition) at 10uM?
1. CN1CCN(c2ccc([N+](=O)[O-])c(NCC3CCCO3)c2)CC1.Cl (stereo not drawn)
2. Cc1nc([N+](=O)[O-])c(SCC(N)=O)n1Cc1ccccc1

-41.4
27.8
